# ASSAY_TEXT: inhibitors of GR-EGFP nuclear translocation, primary screen, dynein cargo transport inhibitor project, imaging, high-content, 3617.4 mouse cells (AID 1381)
# APPLIED_CONDITIONS: at 20 µM, active compounds read low, stimulated with dexamethasone, 1 µM
The campaign covered roughly 220,000 compounds. About 1,000 (0.45%) were called active. The entries come from a sample that favours actives as a whole.
Catalogue of z-score values
ENDPOINT: z-score

{"COMPOUND": "COc1ccc(-c2cc(C(F)(F)F)nc(S(C)(=O)=O)n2)cc1OC", "ENDPOINT_VALUE": -5.48}
{"COMPOUND": "C/C(CC(=O)Nc1cccc(C(F)(F)F)c1)=N\\NC(=O)C(=O)NCC(C)C", "ENDPOINT_VALUE": -0.981}
{"COMPOUND": "O=C(Nc1ccc(N2CCOCC2)cc1)c1ccc2c(c1)OCO2", "ENDPOINT_VALUE": 1.56}
{"COMPOUND": "CC1CCN(C(=O)c2ccc(S(=O)(=O)Cc3cc(F)ccc3F)c([N+](=O)[O-])c2)CC1", "ENDPOINT_VALUE": -3.71}
{"COMPOUND": "O=C(Nc1ccccc1Cl)c1ccc2nsnc2c1", "ENDPOINT_VALUE": -0.891}
{"COMPOUND": "CN(CCc1ccccn1)C(=O)CCC1CCCN(Cc2ccccc2OC(F)F)C1 (stereo not drawn)", "ENDPOINT_VALUE": -0.0542}
{"COMPOUND": "CCCC1NC(=S)NC(C)=C1C(C)=O (stereo not drawn)", "ENDPOINT_VALUE": 0.661}
{"COMPOUND": "O=C(CCl)N(Cc1cccc([N+](=O)[O-])c1)c1cccc(Cl)c1", "ENDPOINT_VALUE": -4.69}
{"COMPOUND": "COc1ccc(-c2cc(C(F)(F)F)nc(SCC(=O)Nc3ccc4c(c3)OCO4)n2)cc1OC", "ENDPOINT_VALUE": -0.345}
{"COMPOUND": "O=C1/C(=C\\c2cccnc2)CN(Cc2ccccc2)C/C1=C\\c1cccnc1", "ENDPOINT_VALUE": -3.59}
{"COMPOUND": "Cc1ccc(CN2CCN(Cc3ccc(OCCO)cc3)CC2CCO)o1 (stereo not drawn)", "ENDPOINT_VALUE": 0.361}
{"COMPOUND": "COc1ccc(CN(Cc2ccc(OC)cc2)C(=O)c2cccs2)cc1", "ENDPOINT_VALUE": -0.594}
{"COMPOUND": "C/C(=N\\NC(=O)CSc1nc2ccccc2c(=O)n1-c1ccccc1C)c1cccs1", "ENDPOINT_VALUE": 0.968}
{"COMPOUND": "O=C(CCl)Nc1ccc(Sc2ccc(NC(=O)CCl)cc2)cc1", "ENDPOINT_VALUE": -2.59}
{"COMPOUND": "O=C(Nc1ccccc1)c1nnsc1S(=O)(=O)c1ccc(Cl)cc1", "ENDPOINT_VALUE": -5.03}
{"COMPOUND": "CCN(CC)C(=O)CN(c1cccc([N+](=O)[O-])c1)S(=O)(=O)c1ccccc1", "ENDPOINT_VALUE": -0.611}
{"COMPOUND": "CC(C)Sc1nnc([C@H](Cc2ccccc2)NC(=O)OC(C)(C)C)o1", "ENDPOINT_VALUE": -1.61}
{"COMPOUND": "COC(=O)c1ccc(CSc2nnc(N)s2)o1", "ENDPOINT_VALUE": -0.747}
{"COMPOUND": "CCOC(=O)CN(Cc1ccc(OC)c(OC)c1)S(=O)(=O)c1ccc(OC)cc1", "ENDPOINT_VALUE": -0.369}
{"COMPOUND": "Cc1cccc(NC(=S)N2CCC(c3nc4ccccc4s3)CC2)c1", "ENDPOINT_VALUE": -0.203}
{"COMPOUND": "O=C(NCCOCc1ccc(Cl)cc1)c1ncn[nH]1", "ENDPOINT_VALUE": 0.731}
{"COMPOUND": "O=C(/C=C/Sc1ncn[nH]1)c1ccc(Cl)cc1", "ENDPOINT_VALUE": -3.98}
{"COMPOUND": "CS(=O)(=O)c1ccc(Cl)c(NC(=O)Nc2ccccc2)c1", "ENDPOINT_VALUE": 1.27}
